Test system: MDA-MB-435
Assay: NCI tumour cell line growth inhibition, 48 h
The source made the active and inactive calls. No stated cut-off is given here; in the data, active = GI50 up to about 1.1 µM and inactive = higher.
Assay Readout: GI50

INSERT INTO assay_data (molecule, target_or_system, result) VALUES
  ('CCOc1cc(NC(C)=O)ccc1C(=O)NN1C(=O)CSC1c1ccc(O)c(OC)c1 (centres undefined)', 'MDA-MB-435', '46.2 µM (inactive)'),
  ('CN(C(=O)Cc1cccc(N=C=S)c1)[C@H]1CCCC[C@@H]1N1CCCC1', 'MDA-MB-435', '13.9 µM (inactive)'),
  ('CCOC(=O)/C(=N\Nc1ccc(-n2c(C)nc3ccccc3c2=O)cc1)C(C)=O', 'MDA-MB-435', '17.5 µM (inactive)'),
  ('COC(=O)c1cc(CC2Cc3cc4c(cc3C2=O)CCC4)cc2c1CCC2 (centres undefined)', 'MDA-MB-435', '> 100 µM (inactive)');

* * *

Tested on: SNB-19
Assay: NCI tumour cell line growth inhibition, 48 h
Calls of active or inactive are those of the source. Rule as the data show it: active = GI50 up to about 1.1 µM and inactive = higher.
GI50 values for the molecules below.
Assay Readout: GI50

INSERT INTO assay_data (molecule, target_or_system, assay_readout, result) VALUES
  ('CC(C)(C)NC(=O)/C(=C\Sc1ccccc1)c1ccccc1', 'SNB-19', 'GI50', '> 100 µM (inactive)'),
  ('CCCCCCC(=O)OC[n+]1cccc(-c2c(COC(=O)NC(C)C)c(COC(=O)NC(C)C)c3n2CCC3)c1', 'SNB-19', 'GI50', '90.6 µM (inactive)'),
  ('O=C(Cc1nc2ccccc2s1)C(=O)Nc1ccc(Cl)cc1', 'SNB-19', 'GI50', '> 100 µM (inactive)'),
  ('CCOC1OC(=O)c2cc3ccc4c(c3c(-c3ccc5c(c3)OCO5)c21)OCO4 (stereo not given)', 'SNB-19', 'GI50', '8.95 µM (inactive)'),
  ('CC(=O)OC1C(Oc2c(C)cc3c(c2O)[C@@H](C)CC[C@@H]3[C@@H](C)CCC=C(C)C)OCC(O)C1O (stereo not given in full)', 'SNB-19', 'GI50', '19.6 µM (inactive)');

* * *

GI50 values for the compounds below.
Test system: SK-OV-3
Assay: NCI tumour cell line growth inhibition, 48 h
The source made the active and inactive calls. No stated cut-off is given here; in the data, active = GI50 up to about 1.1 µM and inactive = higher.
Assay Readout: GI50

INSERT INTO measurements (compound, target_or_system, result) VALUES
  ('Clc1nc(-[n+]2ccc(-c3ccncc3)cc2)nc(Nc2ccccc2)c1Cl', 'SK-OV-3', '> 100 µM (inactive)'),
  ('Cc1occ2c1C(=O)CC1C2[C@@H](O)CC2C(C)(C)CCC[C@]12C (stereo partly specified)', 'SK-OV-3', '> 100 µM (inactive)'),
  ('CC(C)=CCC[C@@H](C)c1c2nc3ccccc3[nH]c-2c(C)c(=O)c1O', 'SK-OV-3', '2.15 µM (inactive)'),
  ('COc1ccc2nc(-n3c(/C=C/c4ccccc4O)nc4ccccc4c3=O)sc2c1', 'SK-OV-3', '> 100 µM (inactive)'),
  ('Nc1nc(Cl)nc2c1ncn2C1CC(O)C(CO)O1 (stereo unspecified)', 'SK-OV-3', '52.7 µM (inactive)'),
  ('Cc1ccc(O)c(C(c2ccc(C(c3cc(C)ccc3O)c3cc(C)ccc3O)cc2)c2cc(C)ccc2O)c1', 'SK-OV-3', '1.68 µM (inactive)'),
  ('CC(=O)NC(Cc1ccc(O)cc1)C(=O)O (stereo unspecified)', 'SK-OV-3', '> 100 µM (inactive)'),
  ('O=C1/C(=C/c2ccc(O)cc2)CCc2ccccc21', 'SK-OV-3', '> 55.6 µM (inactive)'),
  ('O=C1C(Cl)=C(NCCN2CCOCC2)C(=O)c2ncccc21', 'SK-OV-3', '1.95 µM (inactive)'),
  ('O=C1c2ccccc2-c2nnc3c(c21)-c1ccccc1C3', 'SK-OV-3', '> 100 µM (inactive)'),
  ('Cc1ccc(S(=O)(=O)NNC(=S)Nc2cccc3ccccc23)cc1', 'SK-OV-3', '43.3 µM (inactive)');

* * *

Tested on: A549
Test: NCI tumour cell line growth inhibition, 48 h
Active and inactive are the calls of the source. Cut-off read from the data, not from the text of the source: active = GI50 up to about 1.1 µM and inactive = higher.
Assay Readout: GI50

INSERT INTO results (molecule, assay_readout, result) VALUES
  ('CCOC(=O)N1N=NC2C3OC(C[C@@]3(C#N)OC(C)=O)[C@H]21 (stereo not given in full)', 'GI50', '> 100 µM (inactive)'),
  ('O=C1C(Cl)=C(NCCN2CCOCC2)C(=O)c2ncccc21', 'GI50', '2 µM (inactive)'),
  ('Cc1nc2ccccc2[s+]c1-c1cnc(NC#N)nc1C(=O)Nc1cccc(Cl)c1', 'GI50', '> 100 µM (inactive)'),
  ('c1ccc2c(Cc3[nH]c4ccccc4c3Cc3c[nH]c4ccccc34)c[nH]c2c1', 'GI50', '3.1 µM (inactive)'),
  ('COc1ccc(C(=O)/C=C/c2ccc(OCCCCCCCCCCOc3ccc(/C=C/C(=O)c4ccc(OC)cc4)cc3)cc2)cc1', 'GI50', '> 100 µM (inactive)');

* * *

System: IGROV-1
Experiment: NCI tumour cell line growth inhibition, 48 h
Calls of active or inactive are those of the source. Rule as the data show it: active = GI50 up to about 1.1 µM and inactive = higher.
Assay Readout: GI50

INSERT INTO assay_data (molecule, assay_readout, result) VALUES
  ('COC(=O)C1=Nc2c(C)nn(-c3ccccc3)c2N=C(c2ccccc2)C1', 'GI50', '> 10 µM (inactive)'),
  ('CCCCNN', 'GI50', '> 100 µM (inactive)'),
  ('COC(=O)C1C(C(=O)OC)C2(OC)c3ccccc3-c3ccccc3C12 (configuration not stated)', 'GI50', '35 µM (inactive)'),
  ('CN(C)CCn1c2c3ccccc3ccc2c2oc(=O)c3ccccc3c21', 'GI50', '12.1 µM (inactive)'),
  ('O=C1/C(=C/c2ccc(O)cc2)CCc2ccccc21', 'GI50', '26.9 µM (inactive)'),
  ('O/N=C\c1cc(O)c(O)c(/C=N/O)c1', 'GI50', '41.4 µM (inactive)'),
  ('N#Cc1c(N2CCOCC2)ncn(-c2ccc(Cl)cc2)c1=O', 'GI50', '> 100 µM (inactive)'),
  ('N#Cc1c(N)nc(S)c(C#N)c1-c1ccccc1', 'GI50', '> 100 µM (inactive)'),
  ('CC1(C)N=c2c(ncn2CCCO)=C(C(N)=O)N1', 'GI50', '> 100 µM (inactive)'),
  ('Nc1nncc2c1c(Br)cn2C1OC(CO)C(O)C1O (configuration not stated)', 'GI50', '25.1 µM (inactive)'),
  ('N=C(N)SCCSC(=N)N', 'GI50', '> 100 µM (inactive)'),
  ('S=C(/N=c1/sc(Nc2ccccc2)nc2sc3c(c12)CCCC3)Nc1ccccc1', 'GI50', '> 62.5 µM (inactive)');

* * *

Tested on: NCI-H460
Test: NCI tumour cell line growth inhibition, 48 h
The source made the active and inactive calls. Rule as the data show it: active = GI50 up to about 1.1 µM and inactive = higher.
Possible outcomes: active, inactive

INSERT INTO measurements (compound, target_or_system, cat) VALUES
  ('CNC(=O)C1(C#N)C(c2ccccc2)C(C#N)(C(=O)NC)C1c1ccccc1 (stereo not given)', 'NCI-H460', 'inactive'),
  ('COc1ccc2nc(-n3c(/C=C/c4ccccc4O)nc4ccccc4c3=O)sc2c1', 'NCI-H460', 'inactive'),
  ('Nc1nc(=O)n(C2CC(O)C(CO)O2)c2nc(-c3ccc(-c4ccccc4)cc3)cnc12 (stereo not given)', 'NCI-H460', 'inactive'),
  ('NC(N)NCCCc1cn2c(n1)C1CCCN1C(=O)C2Cc1ccccc1 (stereo not given)', 'NCI-H460', 'inactive'),
  ('COc1cc2c(cc1O)NC(=O)[C@@H]1CCCN1C2=O', 'NCI-H460', 'inactive'),
  ('CCOP(=O)(OCC)/C(C#N)=C/c1[nH]cnc1C', 'NCI-H460', 'inactive'),
  ('CCNC(=O)O/N=C1\CCC2[C@@H]3CC=C4C[C@@H](OC5CCCCO5)CC[C@]4(C)C3CC[C@]12C (stereo not given in full)', 'NCI-H460', 'inactive'),
  ('O=CN1CCN(C=S)CC1', 'NCI-H460', 'inactive'),
  ('Clc1ccc(-c2ccc(-c3nnc(CCc4nnc(-c5ccc(-c6ccc(Cl)cc6)o5)o4)o3)o2)cc1', 'NCI-H460', 'inactive'),
  ('CC(C)=CCC[C@@H](C)c1c2nc3ccccc3[nH]c-2c(C)c(=O)c1O', 'NCI-H460', 'active');

* * *

GI50 values for the compounds below.
System: U-251
Experiment: NCI tumour cell line growth inhibition, 48 h
Active and inactive are the calls of the source. Cut-off read from the data, not from the text of the source: active = GI50 up to about 1.1 µM and inactive = higher.
Assay Readout: GI50

INSERT INTO assay_data (compound, result) VALUES
  ('O=Cc1ccccc1CCn1c(=O)c2cc3c(=O)n(CCc4ccccc4C=O)c(=O)c3cc2c1=O', '> 100 µM (inactive)'),
  ('Cc1ccc(S(=O)(=O)OC2CS[S+]([O-])CC2OS(=O)(=O)c2ccc(C)cc2)cc1 (stereo not given)', '14.8 µM (inactive)'),
  ('CCOC(=O)c1c(CN2CCCC2)n(-c2ccccc2)c2cc(Br)c(OC)cc12', '16.1 µM (inactive)'),
  ('C(=N\Nc1ccc(-c2nc3ccccc3[nH]2)cc1)/c1c(-c2ccc(Cc3ccccc3)cc2)[nH]c2ccccc12', '6.01 µM (inactive)'),
  ('CN(C(=O)Cc1cccc(N=C=S)c1)[C@H]1CCCC[C@@H]1N1CCCC1', '17.1 µM (inactive)'),
  ('CCOC(=O)c1c(/C=N\Nc2ccccc2)nc2ccccc2c1-c1ccccc1', '38.2 µM (inactive)'),
  ('COc1ccc(Cn2c3c(cc(OC(C)=O)c2=O)Cc2ccccc2-3)cc1', '8.65 µM (inactive)'),
  ('Cc1cc(=O)oc2c(C)c3oc(CBr)cc3cc12', '19.8 µM (inactive)'),
  ('COc1cc(C)c(S(=O)(=O)N(CCCN)OCCCN)c(C)c1C', '29.9 µM (inactive)'),
  ('COc1ccc2c[n+](C)c3c4cc(OC)c(OC)cc4ccc3c2c1', '1.49 µM (inactive)');
